# system under test: Diacylglycerol lipase-alpha (Homo sapiens, UniProt Q9Y4D2)
# Sequence (Q9Y4D2 whole entry): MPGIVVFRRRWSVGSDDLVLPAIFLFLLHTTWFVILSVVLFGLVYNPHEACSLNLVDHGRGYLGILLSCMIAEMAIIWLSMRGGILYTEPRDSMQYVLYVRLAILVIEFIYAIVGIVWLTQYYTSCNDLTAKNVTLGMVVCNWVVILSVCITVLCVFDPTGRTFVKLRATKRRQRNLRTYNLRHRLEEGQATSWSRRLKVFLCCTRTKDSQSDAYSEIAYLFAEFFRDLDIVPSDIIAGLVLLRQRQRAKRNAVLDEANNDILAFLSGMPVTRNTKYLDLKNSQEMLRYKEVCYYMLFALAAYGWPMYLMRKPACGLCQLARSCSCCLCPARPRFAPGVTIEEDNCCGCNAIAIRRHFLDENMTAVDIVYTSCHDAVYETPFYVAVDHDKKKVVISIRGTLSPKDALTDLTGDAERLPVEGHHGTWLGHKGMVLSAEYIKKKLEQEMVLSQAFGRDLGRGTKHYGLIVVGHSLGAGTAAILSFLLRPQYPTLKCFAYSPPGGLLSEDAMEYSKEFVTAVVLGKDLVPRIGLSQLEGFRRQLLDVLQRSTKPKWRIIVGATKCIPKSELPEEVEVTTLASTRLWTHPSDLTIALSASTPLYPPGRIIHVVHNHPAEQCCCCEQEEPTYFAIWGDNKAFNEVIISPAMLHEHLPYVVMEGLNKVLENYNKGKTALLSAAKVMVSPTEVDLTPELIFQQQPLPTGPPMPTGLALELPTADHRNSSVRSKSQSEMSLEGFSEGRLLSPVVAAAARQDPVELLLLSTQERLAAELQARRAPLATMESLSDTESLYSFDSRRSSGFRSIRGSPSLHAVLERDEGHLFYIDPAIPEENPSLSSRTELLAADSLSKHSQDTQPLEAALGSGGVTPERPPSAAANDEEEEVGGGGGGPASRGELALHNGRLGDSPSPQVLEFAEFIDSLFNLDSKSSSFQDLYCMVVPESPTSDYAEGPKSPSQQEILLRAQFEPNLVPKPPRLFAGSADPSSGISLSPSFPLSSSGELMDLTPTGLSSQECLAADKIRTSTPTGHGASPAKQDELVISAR
# protocol text: Inhibition of full-length human DAGLalpha expressed in HEK293T cell membranes using para-nitrophenylbutyrate by colorimetric assay
pIC50: −log10 of the molar value.
experimental readout: pIC50

Bench note, Diacylglycerol lipase-alpha (Homo sapiens, UniProt Q9Y4D2): entry O=C(CCCCCCc1ccccc1)c1nc(C(F)(F)F)co1 , its pIC50 = 6.67

1. O=C(CCCCc1ccccc1)c1nc2ncccc2o1
2. O=C(CCCCCc1ccccc1)c1nc2ccccc2o1
Task: Consider 1 and 2 . Which of these has its pIC50 at a higher number? Response format: the label of the selected entry.
Output: 1
(1: 6.69, 2: 5.44)
